Recorded below: AC50, system Cytochrome P450 2C9 (Homo sapiens).

molecule: Cc1c(C)c2c(c(C)c1O)CC[C@@](C)(CCC[C@@H](C)CCC[C@@H](C)CCCC(C)C)O2
AC50: inconclusive
//
molecule: Cc1ccccc1C(=O)NNC(=O)c1ccc(F)cc1
AC50: inconclusive
//
molecule: O=C(NCC1COc2ccccc2O1)C1CCN(S(=O)(=O)c2cccc3nsnc23)CC1 (stereo not drawn)
AC50: inconclusive

###

target: Leucine aminopeptidase (Plasmodium falciparum 3D7, UniProt Q8IL11); assay: P. falciparum M17LAP inhibitors, primary screen, biochemical, fluorogenic H-Leu-NHMec substrate, 1536-well (AID 1619); format: functional
Sequence (Q8IL11 whole entry): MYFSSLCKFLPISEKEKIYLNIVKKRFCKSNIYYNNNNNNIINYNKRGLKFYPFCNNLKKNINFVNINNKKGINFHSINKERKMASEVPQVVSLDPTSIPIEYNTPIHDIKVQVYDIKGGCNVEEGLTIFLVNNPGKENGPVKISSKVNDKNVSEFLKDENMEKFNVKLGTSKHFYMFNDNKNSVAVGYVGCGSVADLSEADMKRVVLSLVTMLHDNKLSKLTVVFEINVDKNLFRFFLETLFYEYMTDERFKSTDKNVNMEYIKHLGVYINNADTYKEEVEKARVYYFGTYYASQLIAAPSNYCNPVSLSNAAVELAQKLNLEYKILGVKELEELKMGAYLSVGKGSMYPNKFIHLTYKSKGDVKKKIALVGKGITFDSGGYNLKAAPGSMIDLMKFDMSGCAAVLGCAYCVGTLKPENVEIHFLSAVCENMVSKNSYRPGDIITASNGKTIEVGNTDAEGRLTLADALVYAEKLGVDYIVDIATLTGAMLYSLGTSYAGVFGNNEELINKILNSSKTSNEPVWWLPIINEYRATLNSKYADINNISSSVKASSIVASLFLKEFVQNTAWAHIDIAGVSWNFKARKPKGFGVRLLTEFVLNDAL
The source made the active and inactive calls. The rule behind the calls is not given here.
// reported IC50 per item

Reference set (5 entries):
molecule: CCOC(=O)c1c(NC(=O)C2C3C=CC(C3)C2C(=O)O)sc2c1CC(C)CC2 (stereo not drawn)
testSystem: Leucine aminopeptidase (Plasmodium falciparum 3D7, UniProt Q8IL11)
measValue: 10.1 µM (active)
//
molecule: CC1=NNC(=O)C1CCC(=O)N/N=C\c1ccccc1[N+](=O)[O-] (stereo not drawn)
testSystem: Leucine aminopeptidase (Plasmodium falciparum 3D7, UniProt Q8IL11)
measValue: 3.14 µM (active)
//
molecule: Cc1ccc(S(=O)(=O)N(CC(=O)Nc2ccccc2C(=O)O)c2cccc(Cl)c2C)cc1
testSystem: Leucine aminopeptidase (Plasmodium falciparum 3D7, UniProt Q8IL11)
measValue: 24.7 µM (active)
//
molecule: O=C(NC(=S)NNC(=O)c1ccc(Cl)cc1Cl)c1cccnc1
testSystem: Leucine aminopeptidase (Plasmodium falciparum 3D7, UniProt Q8IL11)
measValue: 49.6 µM (active)
//
molecule: O=c1[nH]c2ccc(S(=O)(=O)N3CCN(Cc4ccccc4)CC3)cc2[nH]c1=O
testSystem: Leucine aminopeptidase (Plasmodium falciparum 3D7, UniProt Q8IL11)
measValue: 2.62 µM (active)

Query string: Entry `COc1ccc(Cc2nnc(NS(=O)(=O)Cc3ccccc3)s2)cc1` has what IC50?
Result string: 6.34 µM (active)

Query string: Entry `CCn1c(SCC(=O)c2ccc(O)c(O)c2)nnc1-c1ccc(C)cc1` has what IC50?
Result string: 17.9 µM (active)

Query string: Entry `O=S(=O)(Nc1nc2ccccc2nc1NCCN1CCOCC1)c1cccc(Cl)c1` has what IC50?
Result string: 25.9 µM (active)
